These measurements were taken from ChEMBL document CHEMBL5625245.

Assay: Selectivity index, ratio of IC50 for human L02 cells to IC50 for human Bel-7402 cells
Format: toxicity
Settings: L02 cells and Bel-7402 cells, read-out: Ratio IC50
Observable: selectivity ratio

{"Smiles Code": "CC(C)OC(=O)[C@H](C)N[P@](=O)(OC[C@H]1O[C@@H](n2cc(F)c(=O)[nH]c2=O)C[C@@H]1OC(=O)[C@@H]1CCCN1C(=O)[C@@H](NC(=O)OC(C)(C)C)C(C)C)Oc1ccccc1", "Recorded Value": 205}
{"Smiles Code": "CC(C)OC(=O)[C@H](C)N[P@](=O)(OC[C@H]1O[C@@H](n2cc(F)c(=O)[nH]c2=O)C[C@@H]1OC(=O)[C@H](C)NC(=O)OC(C)(C)C)Oc1ccccc1", "Recorded Value": 165}

----------
Each item that follows carries a reported solubility.
Assay: Solubility of the compound in 5% DMSO/95% saline at 25 degreeC by HPLC analysis
Assay type: physicochemical
Observable: solubility

{"Smiles Code": "CC(C)OC(=O)[C@H](C)N[P@](=O)(OC[C@H]1O[C@@H](n2cc(F)c(=O)[nH]c2=O)C[C@@H]1OC(=O)[C@H](C)NC(=O)OC(C)(C)C)Oc1ccccc1", "Observable": "solubility", "Recorded Value": "< 1000 µg/mL"}
{"Smiles Code": "CC(C)OC(=O)[C@H](C)N[P@](=O)(OC[C@H]1O[C@@H](n2cc(F)c(=O)[nH]c2=O)C[C@@H]1OC(=O)[C@@H]1CCCN1C(=O)[C@@H](NC(=O)OC(C)(C)C)C(C)C)Oc1ccccc1", "Observable": "solubility", "Recorded Value": "< 1000 µg/mL"}

----------
Each item that follows carries a reported solubility.
Experiment: Solubility of the compound in 5% DMSO/10% cremophor EL/85% saline at 25 degreeC by HPLC analysis
Type: physicochemical

{"Smiles Code": "CC(C)OC(=O)[C@H](C)N[P@](=O)(OC[C@H]1O[C@@H](n2cc(F)c(=O)[nH]c2=O)C[C@@H]1OC(=O)[C@H](C)NC(=O)OC(C)(C)C)Oc1ccccc1", "solubility [µg/mL]": 5000}
{"Smiles Code": "CC(C)OC(=O)[C@H](C)N[P@](=O)(OC[C@H]1O[C@@H](n2cc(F)c(=O)[nH]c2=O)C[C@@H]1OC(=O)[C@@H]1CCCN1C(=O)[C@@H](NC(=O)OC(C)(C)C)C(C)C)Oc1ccccc1", "solubility [µg/mL]": 5000}

----------
Each item that follows carries a reported solubility.
Assay: Solubility of the compound in 2% DMSO/8% tween80/90% saline at 25 degreeC by HPLC analysis
Format: physicochemical

{"Smiles Code": "CC(C)OC(=O)[C@H](C)N[P@](=O)(OC[C@H]1O[C@@H](n2cc(F)c(=O)[nH]c2=O)C[C@@H]1OC(=O)[C@@H]1CCCN1C(=O)[C@@H](NC(=O)OC(C)(C)C)C(C)C)Oc1ccccc1", "solubility": "< 5000 µg/mL"}
{"Smiles Code": "CC(C)OC(=O)[C@H](C)N[P@](=O)(OC[C@H]1O[C@@H](n2cc(F)c(=O)[nH]c2=O)C[C@@H]1OC(=O)[C@H](C)NC(=O)OC(C)(C)C)Oc1ccccc1", "solubility": "< 5000 µg/mL"}

----------
Each item that follows carries a reported half-life at 1 mg/ml.
Assay: Metabolic stability in human plasma assessed as half life at 1 mg/ml measured upto 72 hrs by HPLC analysis
Assay type: ADME, cell-free
Observable: half-life at 1 mg/ml

{"Smiles Code": "CC(C)OC(=O)[C@H](C)N[P@](=O)(OC[C@H]1O[C@@H](n2cc(F)c(=O)[nH]c2=O)C[C@@H]1OC(=O)[C@H](C)NC(=O)OC(C)(C)C)Oc1ccccc1", "Recorded Value": "> 2880 min"}
{"Smiles Code": "CC(C)OC(=O)[C@H](C)N[P@](=O)(OC[C@H]1O[C@@H](n2cc(F)c(=O)[nH]c2=O)C[C@@H]1OC(=O)[C@@H]1CCCN1C(=O)[C@@H](NC(=O)OC(C)(C)C)C(C)C)Oc1ccccc1", "Recorded Value": "> 2880 min"}

----------
Each item that follows carries a reported solubility.
Assay: Solubility of the compound in 5% PEG300/95% saline at 25 degreeC by HPLC analysis
Assay type: physicochemical
Observable: solubility

{"Smiles Code": "CC(C)OC(=O)[C@H](C)N[P@](=O)(OC[C@H]1O[C@@H](n2cc(F)c(=O)[nH]c2=O)C[C@@H]1OC(=O)[C@@H]1CCCN1C(=O)[C@@H](NC(=O)OC(C)(C)C)C(C)C)Oc1ccccc1", "Recorded Value": "< 1000 µg/mL"}
{"Smiles Code": "CC(C)OC(=O)[C@H](C)N[P@](=O)(OC[C@H]1O[C@@H](n2cc(F)c(=O)[nH]c2=O)C[C@@H]1OC(=O)[C@H](C)NC(=O)OC(C)(C)C)Oc1ccccc1", "Recorded Value": "< 1000 µg/mL"}

----------
Each item that follows carries a reported half-life at 1 mg/ml.
Assay: Metabolic stability in rat liver homogenates assessed as half life at 1 mg/ml measured after 4 hrs by HPLC analysis
Type: ADME, tissue-based

{"Smiles Code": "CC(C)OC(=O)[C@H](C)N[P@](=O)(OC[C@H]1O[C@@H](n2cc(F)c(=O)[nH]c2=O)C[C@@H]1OC(=O)[C@H](C)NC(=O)OC(C)(C)C)Oc1ccccc1", "half-life at 1 mg/ml": "9.6 min"}
{"Smiles Code": "CC(C)OC(=O)[C@H](C)N[P@](=O)(OC[C@H]1O[C@@H](n2cc(F)c(=O)[nH]c2=O)C[C@@H]1OC(=O)[C@@H]1CCCN1C(=O)[C@@H](NC(=O)OC(C)(C)C)C(C)C)Oc1ccccc1", "half-life at 1 mg/ml": "97.8 min"}

----------
Each item that follows carries a reported solubility.
Experiment: Solubility of the compound in 100% saline at 25 degreeC by HPLC analysis
Type: physicochemical

{"Smiles Code": "CC(C)OC(=O)[C@H](C)N[P@](=O)(OC[C@H]1O[C@@H](n2cc(F)c(=O)[nH]c2=O)C[C@@H]1OC(=O)[C@@H]1CCCN1C(=O)[C@@H](NC(=O)OC(C)(C)C)C(C)C)Oc1ccccc1", "solubility": "< 1000 µg/mL"}
{"Smiles Code": "CC(C)OC(=O)[C@H](C)N[P@](=O)(OC[C@H]1O[C@@H](n2cc(F)c(=O)[nH]c2=O)C[C@@H]1OC(=O)[C@H](C)NC(=O)OC(C)(C)C)Oc1ccccc1", "solubility": "< 1000 µg/mL"}

----------
Each item that follows carries a reported pIC50.
Assay: Antiproliferative activity against human NCM460 cells assessed as reduction in cell viability measured after 48 to 72 hrs by MTT assay
Type: toxicity, cell-based
pIC50: −log10 of the molar value.

{"Compound": "CCC(C)[C@H](NC(=O)OC(C)(C)C)C(=O)O[C@H]1C[C@H](n2cc(F)c(=O)[nH]c2=O)O[C@@H]1CO[P@@](=O)(N[C@@H](C)C(=O)OC(C)C)Oc1ccccc1 (stereo partly drawn)", "pIC50": "< 4.00"}
{"Compound": "CC(C)OC(=O)[C@H](C)N[P@](=O)(OC[C@H]1O[C@@H](n2cc(F)c(=O)[nH]c2=O)C[C@@H]1O)Oc1ccccc1", "pIC50": "< 4.00"}
{"Compound": "C[C@H](N[P@](=O)(OC[C@H]1O[C@@H](n2cc(F)c(=O)[nH]c2=O)C[C@@H]1O)Oc1cccc2ccccc12)C(=O)OCc1ccccc1", "pIC50": "< 4.00"}

----------
Each item that follows carries a reported selectivity ratio.
Assay: Selectivity index, ratio of IC50 for human L02 cells to IC50 for human HepG2 cells
Type: toxicity
Details: L02 cells and HepG2 cells, read-out: Ratio IC50
Observable: selectivity ratio

{"Smiles Code": "CC(C)OC(=O)[C@H](C)N[P@](=O)(OC[C@H]1O[C@@H](n2cc(F)c(=O)[nH]c2=O)C[C@@H]1OC(=O)[C@H](C)NC(=O)OC(C)(C)C)Oc1ccccc1", "Observable": "selectivity ratio", "Recorded Value": 310}
{"Smiles Code": "CC(C)OC(=O)[C@H](C)N[P@](=O)(OC[C@H]1O[C@@H](n2cc(F)c(=O)[nH]c2=O)C[C@@H]1OC(=O)[C@@H]1CCCN1C(=O)[C@@H](NC(=O)OC(C)(C)C)C(C)C)Oc1ccccc1", "Observable": "selectivity ratio", "Recorded Value": 307}

----------
Each item that follows carries a reported solubility.
Experiment: Solubility of the compound in 2% DMSO/10% tween80/88% saline at 25 degreeC by HPLC analysis
Type: physicochemical

{"Smiles Code": "CC(C)OC(=O)[C@H](C)N[P@](=O)(OC[C@H]1O[C@@H](n2cc(F)c(=O)[nH]c2=O)C[C@@H]1OC(=O)[C@H](C)NC(=O)OC(C)(C)C)Oc1ccccc1", "solubility": "> 10000 µg/mL"}
{"Smiles Code": "CC(C)OC(=O)[C@H](C)N[P@](=O)(OC[C@H]1O[C@@H](n2cc(F)c(=O)[nH]c2=O)C[C@@H]1OC(=O)[C@@H]1CCCN1C(=O)[C@@H](NC(=O)OC(C)(C)C)C(C)C)Oc1ccccc1", "solubility": "> 10000 µg/mL"}
